# Tested on: wild mustard (Brassica kaber), also known as Sinapis arvensis (SINAR)
# Protocol details: post-emergent herbicidal test, wild mustard
# Type: in vivo
# Experimental parameters: Brassica, post-emergence, post-emergent, 1.0 kg/ha (*), 17-21 days after application; read-out: SINAR percent control
Reported property: pest or weed control at 1000 g/ha (%)
Report the figure in % without appending any unit label.

Sample O=P(O)(O)C(CN1CCCCCC1)P(=O)(O)O — what was its pest or weed control at 1000 g/ha?
85

Sample CCC1CCCCN1CC(P(=O)(O)O)P(=O)(O)O (stereo not drawn) — what was its pest or weed control at 1000 g/ha?
90

Sample C=CCN(CC)CC(P(=O)(O)O)P(=O)(O)O — what was its pest or weed control at 1000 g/ha?
95
